Target system: Human recombinant MMP-14 (Homo sapiens)
Construct: The catalytic domain enzyme was expressed in E. coli inclusion bodies, solubilized in urea; made in house
Test: In vitro MMP inhibition analysis (fluorogenic peptide substrate cleavage), Ki
Format: biochemical
Condition notes: Table 2
Please go through the items and note down their Ki.
One number for each entry, in µM.

Please review the following examples before continuing.
Compound | Target system | Ki, µM
COCCN1CCC(C(=O)NO)(S(=O)(=O)c2ccc(-c3cnc(CCC(F)(F)F)cn3)cc2)CC1 [Example 214] | Human recombinant MMP-14 (Homo sapiens) | 6.98
O=C(NCC1CCCCC1)c1cnc(-c2ccc(S(=O)(=O)C3(C(=O)NO)CCOCC3)cc2)cn1 [Example 190] | Human recombinant MMP-14 (Homo sapiens) | 4.7
COCC#Cc1cnc(-c2ccc(S(=O)(=O)C3(C(=O)NO)CCOCC3)cc2)cn1 [Example 164] | Human recombinant MMP-14 (Homo sapiens) | 0.152
O=C(NO)C1(S(=O)(=O)c2ccc(-c3ccc(-c4ccccc4)cc3)cc2)CCOCC1 [Example 104] | Human recombinant MMP-14 (Homo sapiens) | 0.247

// each compound listed below needs its Ki
1. O=C(NO)C1(S(=O)(=O)c2ccc(-c3ccc(CCC(F)(F)F)cn3)cc2)CCOCC1 [Example 176]
2. CC(C)(C)NC(=O)c1ccc(-c2ccc(S(=O)(=O)C3(C(=O)NO)CCOCC3)cc2)nc1 [Example 205]

1. 0.111
2. 7.63
